Molecular target: T1, GST-PHD1 (S287-K347) of KDM5A (human, UniProt P29375 287-347)
T1 chain: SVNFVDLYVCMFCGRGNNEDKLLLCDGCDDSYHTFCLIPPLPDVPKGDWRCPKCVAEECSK
Experiment: FP; H3R8me2s (symmetric dimethyl)
Where no end group is shown, it is not given here.
Observed Property: Kd (nM)
Answers are plain numbers, in nM.

Request: Name the recorded Kd for ARTKQTARKS (also: methylated Arg8, degree of methylation not given here) [H3 10mer peptide methylated at R8] .
Result: 2010
